# Test system: CCRF-CEM leukemia
# Test Name: NCI tumour cell line growth inhibition, 48 h
Readout Label: TGI (µM)
Hi! Could you send only the number? It should be in µM, unit omitted.

For this compound ( "CCCCCC/C=C\CCCCCCCCCc1c(O)c(OC)cc(O)c1CN(C)C" ), measured TGI is 2.87

For this compound ( "CC(C)(C)[Si](Nc1ccccc1)(c1ccccc1)c1ccccc1" ), measured TGI is 39.7

For this compound ( "COc1ccc(Cn2cc3c(c2-c2ccccc2)CCc2cncnc2-3)cc1" ), measured TGI is 18.3

Now consider a different compound.
For this compound ( "C[C@@]1(CBr)C[C@@](C)(/C=C/Cl)[C@@H](Cl)C[C@H]1Cl" ), measured TGI is 19.8

----------
# System: LXFL 529 NSCLC
# Test Name: NCI tumour cell line growth inhibition, 48 h
Readout Label: TGI

These solved cases illustrate the format of a correct answer.
For this compound ( CN(C(=O)C1CC1)C1C2CN3CCC(O2)C13 (centres undefined) ), measured TGI is > 100 µM

For this compound ( "COc1ccc2c(c1)Cc1c-2[nH]c2cc3c(cc2c1=O)OCO3" ), measured TGI is > 100 µM

For this compound ( "N=C(N)Cn1cnc2ccccc21" ), measured TGI is > 100 µM

For this compound ( "CCCCCCCCCCCCOC(=S)NC" ), measured TGI is 31.4 µM

For this compound ( "Oc1cccc2nc3cc(CN4CCOCC4)c(CN4CCOCC4)cc3nc12" ), measured TGI is > 100 µM

Now consider a different compound.
For this compound ( "COC(=O)NN=C1C(C)(C)C(=NNC(=O)OC)C1(C)C" ), measured TGI is > 100 µM

----------
Recorded TGI by entry
# Test system: SK-OV-3 ovarian
# Test Name: NCI tumour cell line growth inhibition, 48 h

These solved cases illustrate the format of a correct answer.
For this molecule ( COC(=O)C(C(=O)C(=O)Nc1ccc(C)cc1C)c1nc2ccc([N+](=O)[O-])cc2[nH]c1=O (stereo not given) ), measured TGI is > 100 µM

For this molecule ( S=C1NC2=C(COC/C2=C\c2ccccc2Cl)C(c2ccccc2Cl)N1 (stereo not given) ), measured TGI is > 100 µM

For this molecule ( "Cc1ccc(C(=O)Nc2ccccc2C(=O)N/N=C(\c2ccccc2)c2ccccn2)cc1" ), measured TGI is > 100 µM

For this molecule ( "Cc1cc(O)c(/C=N/C(=O)NN)c(=O)o1" ), measured TGI is > 100 µM

For this molecule ( "Nc1ccc(S(=O)(=O)c2ccc(N=[N+]([O-])c3ccc(S(=O)(=O)c4ccc(N)cc4)cc3)cc2)cc1" ), measured TGI is > 90.6 µM

For this molecule ( "Cc1cccc(NC(=O)Cc2nc3ccccc3s2)c1C" ), measured TGI is > 100 µM

For this molecule ( CCCCCCCCC[C@@H]1C[C@@H]2CCC3C(C(=O)OCCCCNC(=O)OCc4ccccc4)=C(C)NC(=N1)N32 (stereo not given in full) ), measured TGI is 8.74 µM

For this molecule ( O/N=C1/C(=C/c2ccc(Cl)cc2)CCCC1C(NO)c1ccc(Cl)cc1 (stereo not given) ), measured TGI is > 100 µM

Next:
For this molecule ( "Cn1c2cc(Cl)ccc2c2ccc3c(c21)C(=O)C=CC3=O" ), measured TGI is > 100 µM

For this molecule ( "Cc1cc(C)c(N)c(C)c1N" ), measured TGI is > 100 µM

----------
Recorded TGI by entry
# System: UACC-257 melanoma
# Test Name: NCI tumour cell line growth inhibition, 48 h
Hi! Could you send only the number? It should be in µM, unit omitted.

For this molecule ( "CO[C@H]1/C=C/C[C@H](C)[C@@H](C)S(=O)(=O)NC(=O)c2ccc3c(c2)N(C[C@@H]2CC[C@H]21)C[C@@]1(CCCc2cc(Cl)ccc21)CO3" ), measured TGI is 9.69

For this molecule ( "OCCCCC#Cc1ccccc1C#Cc1cccs1" ), measured TGI is 33

For this molecule ( "Cc1ccc(-c2nc3n(c2/C=N\N=C(N)N)CCS3)cc1" ), measured TGI is 30.5

For this molecule ( "O=C1c2c(O)cccc2C(C(=O)CCCC(=O)C2c3cccc(O)c3C(=O)c3c(O)cccc32)c2cccc(O)c21" ), measured TGI is 0.893

For this molecule ( CC1(C)CC(O)CCCCCCOc2c(CN)cccc2NC(=O)c2nc(cnc2N)-c2ccc(cc2)S1(=O)=O (stereo not given) ), measured TGI is 3.4

Next:
For this molecule ( "CN1CCN(CCCCNc2cc3c4ccccc4c(NCCCCN4CCN(C)CC4)cc3c3ccccc23)CC1" ), measured TGI is 19

----------
# System: HT29 colon
# Test Name: NCI tumour cell line growth inhibition, 48 h
Readout Label: TGI

For this compound ( CC(C(O)c1ccccc1)[N+](=O)[O-] (stereo not given) ), measured TGI is 71.8 µM

For this compound ( "O=C(/C=C\c1ccc(OCCCCCC[P+](c2ccccc2)(c2ccccc2)c2ccccc2)cc1)c1ccc2c(c1)OCCO2" ), measured TGI is 3.24 µM

For this compound ( "CCOC(=O)CC(=Nc1cc(C)on1)N(CC)CC" ), measured TGI is > 100 µM

For this compound ( Cc1ccc(N2C(=O)C(O)=C(C(=O)C(C)(C)C)C2c2ccc([N+](=O)[O-])cc2)cc1 (stereo not given) ), measured TGI is 37.3 µM

For this compound ( "CCOC(=O)/C(=C\NC#N)c1nc2ccccc2[nH]1" ), measured TGI is > 100 µM

Next:
For this compound ( "COc1cccc2cc(N(C)c3nc(C)nc4ccsc34)ccc12" ), measured TGI is 11.6 µM

For this compound ( "CCOC(=O)CCc1c(C)c2c(O)cc(O)cc2oc1=O" ), measured TGI is > 100 µM

For this compound ( CCCCCCCCCCOC1C(C(C)OCCCN(C)C)OC2OC3(CCCCC3)OC21 (stereo not given) ), measured TGI is 11 µM

For this compound ( "CCN(CC)CCNC(=O)c1cc2cc(NC(=O)c3cc4cc(NC(=O)c5cc6cc([N+](=O)[O-])ccc6[nH]5)ccc4[nH]3)ccc2[nH]1" ), measured TGI is > 100 µM

For this compound ( O=C(Cc1ccccc1)NN1C(=O)C(Cl)C1c1ccccc1 (stereo not given) ), measured TGI is > 100 µM

For this compound ( "C/C(=N\Nc1ncnc2ccccc12)c1ccccn1" ), measured TGI is > 46.6 µM

For this compound ( CCOC(=O)C1CCCC1S(=O)(=O)c1ccc(C)cc1 (stereo not given) ), measured TGI is > 100 µM

For this compound ( "Cc1noc(C)c1N=Nc1ccc2nonc2c1N" ), measured TGI is > 100 µM

For this compound ( "CCOC(=S)SC/C(=N\OC(C)(C)OC)c1ccccc1" ), measured TGI is 58.3 µM

For this compound ( "CC(=N\N=C\c1ccccn1)/C(C)=N/N=C/c1ccccn1" ), measured TGI is > 100 µM

----------
# System: MCF7 breast
# Test Name: NCI tumour cell line growth inhibition, 48 h
Recorded TGI by entry

For this compound ( "O=C(O)[C@H]1NC[C@@H]2ON=C(Br)[C@@H]21" ), measured TGI is > 100 µM

For this compound ( CC1(C)C(C(=O)OC(C#N)c2cccc(OCC(=O)OCc3ccccc3)c2)C1(C)C (stereo unspecified) ), measured TGI is > 100 µM

For this compound ( "CC(C)=CCC[C@@H](C)C1=C(O)C(Nc2ccccc2F)=C(C)C(=O)C1=O" ), measured TGI is > 90 µM

Next:
For this compound ( CC(=O)O[C@@H]1CC2[C@@H](CCC3Cc4nc5c(nc4C[C@@]32C)CC2CC[C@@H]3C(CC[C@@]4(C)C3CC[C@@H]4C(C)CCCC(C)C)[C@@]2(C)C5)C2C[C@@H]3OC4(CCC(C)CO4)C(C)[C@@H]3[C@]21C (stereo partly specified) ), measured TGI is > 100 µM

For this compound ( "CC(C)(CO)NC(=O)c1cccc(C(=O)NC(C)(C)CO)c1Br" ), measured TGI is > 100 µM

For this compound ( "CC1(C)N=C(/C(C#N)=[N+](/[O-])C(=O)c2ccccc2)C(C)(C)N1O" ), measured TGI is > 100 µM

----------
# Tested on: U251 CNS
Your answer must be one of the following: active, inactive

Some solved entries appear below for comparison.
QUERY: Recorded test outcome, item "OCCCCC#Cc1ccccc1C#Cc1cccs1"
RESULT: inactive

QUERY: Recorded test outcome, item "COc1cc(C(=O)/C=C/c2c(-c3cccs3)nc3ccccn23)cc(OC)c1OC"
RESULT: inactive

QUERY: Recorded test outcome, item "O=C1C(Nc2cccc(O)c2)=C(Sc2ccc(Cl)cc2)C(=O)N1Cc1ccccc1"
RESULT: inactive

QUERY: Recorded test outcome, item "CN1CCN(c2ccc([N+](=O)[O-])c3no[n+]([O-])c23)CC1"
RESULT: active

Let's switch to this molecule now.
QUERY: Recorded test outcome, item CCC[CH2][Sn]1([CH2]CCC)[O]CC([CH2][Sn]([c]2ccccc2)([c]2ccccc2)[c]2ccccc2)[O]1 (stereo not given)
RESULT: inactive
